read-out: Nuclear factor erythroid 2-related factor 2 (Homo sapiens); assay: LTEA_HepaRG_NFE2L2: Life Technologies and Expression Analysis (LTEA) Assay for Nuclear factor erythroid 2-related factor 2 (NFE2L2) Transcription Factor using HepaRG (AID 2283527); settings: mRNA level, 48 h; actives raise or lower the signal
Calls of active or inactive are those of the source. Rule for the calls: active = hit-call score of the fitted dose curve at least 0.9, where 1 is the maximum; inactive = score below 0.9.
Permitted responses: active, inactive

Examples with answers:
CCOC(N)=O
inactive
NC(=O)N1c2ccccc2C=Cc2ccccc21
inactive
CC(=O)c1ccccc1
inactive
CC(C)C(=O)Nc1ccc([N+](=O)[O-])c(C(F)(F)F)c1
active

Qu. Fill in: this test's call for O=C(O)c1ccc2c(c1)nc(C(=O)NC1CCN(C3CC3)CC1)n2Cc1cc(-c2ccc(Cl)s2)on1 is ___
Ans. inactive

Qu. Fill in: this test's call for C=CCc1cc(S(=O)(=O)c2ccc(O)c(CC=C)c2)ccc1O is ___
Ans. inactive

Qu. Fill in: this test's call for CCCc1ccccc1 is ___
Ans. inactive

Qu. Fill in: this test's call for CCCOc1ccc(S(=O)(=O)N2CCN(CC)CC2)cc1-c1nc2c(CC)n(Cc3ccccn3)nc2c(=O)[nH]1 is ___
Ans. active

Qu. Fill in: this test's call for OC(CCl)CCl is ___
Ans. inactive

###

assay: APR_HepG2_MicrotubuleCSK_24hr: Apredica 24-hour HepG2 Assay for Microtubule CSK Stabilty (AID 2282909); details: HepG2 microtubule cytoskeleton imaging, actives raise or lower the signal
Activity calls are given as the source filed them. Rule for the calls: active = hit-call score of the fitted dose curve at least 0.9, where 1 is the maximum; inactive = score below 0.9.
Permitted responses: class 1 (active), class 0 (inactive)

Examples with answers:
O=c1[nH]cnc2c1ncn2[C@H]1CC[C@@H](CO)O1
class 0
c1ccc2c(c1)-c1cccc3c1c-2cc1ccccc13
class 0
NC(=O)NN=Cc1ccc([N+](=O)[O-])o1
class 0
O=C(O)c1cccc(C(=O)O)c1
class 0
CCOC(N)=O
class 0
c1ccc2cc3ccccc3cc2c1
class 0

Qu. Fill in: this test's call for NC(N)=O is ___
Ans. class 0

Qu. Fill in: this test's call for CCCCCCCCN(C)C is ___
Ans. class 0

Qu. Fill in: this test's call for CCCCCCCCCCCCCCO is ___
Ans. class 1

Qu. Fill in: this test's call for O=C(O)[C@H](O)[C@@H](O)C(=O)O is ___
Ans. class 0

Qu. Fill in: this test's call for O=C(O)c1ccc2c(c1)nc(C(=O)NC1CCN(C3CC3)CC1)n2Cc1cc(-c2ccc(Cl)s2)on1 is ___
Ans. class 0

###

molecular target: human RAR-related Orphan Receptor gamma (RORg), RORC (gene 6097) (UniProt P51449); assay: ATG_RORg_TRANS: Attagene TRANS-FACTORIAL HepG2 Assay for human RAR-related Orphan Receptor gamma (RORg) (AID 2283011)
Sequence (P51449 whole entry, looked up): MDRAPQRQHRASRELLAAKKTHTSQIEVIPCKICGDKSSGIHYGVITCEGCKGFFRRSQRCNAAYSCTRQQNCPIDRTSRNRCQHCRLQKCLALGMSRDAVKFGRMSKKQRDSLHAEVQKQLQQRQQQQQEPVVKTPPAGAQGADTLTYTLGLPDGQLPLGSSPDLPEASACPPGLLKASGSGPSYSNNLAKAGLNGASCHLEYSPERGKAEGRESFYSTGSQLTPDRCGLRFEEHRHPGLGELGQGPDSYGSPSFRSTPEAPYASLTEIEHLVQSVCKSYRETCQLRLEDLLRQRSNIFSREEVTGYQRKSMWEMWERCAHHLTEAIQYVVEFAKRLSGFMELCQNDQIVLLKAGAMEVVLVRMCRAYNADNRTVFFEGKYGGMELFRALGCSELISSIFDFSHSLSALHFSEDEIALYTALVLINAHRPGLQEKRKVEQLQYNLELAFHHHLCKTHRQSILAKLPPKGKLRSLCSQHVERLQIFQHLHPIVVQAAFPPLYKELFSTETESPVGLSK
Records with an inconclusive call do not appear. Calls of active or inactive are those of the source. The calls were made as follows: active = hit-call score of the fitted dose curve at least 0.9, where 1 is the maximum; inconclusive = response in the unintended direction; inactive = score below 0.9.
Permitted responses: active, inactive

CCCCCCCC1CCC(=O)O1 (stereo not given)
inactive
O=S(=O)(O)CCC(F)(F)C(F)(F)C(F)(F)C(F)(F)C(F)(F)C(F)(F)F
inactive
S=P(N1CC1)(N1CC1)N1CC1
inactive
OCc1c[nH]c2ccccc12
inactive

Now, please, on to the next compound.
Qu. Fill in: this test's call for COc1cc(C(C)C)c2c(c1)S(=O)(=O)N(COc1cc(=O)n3cccc(OCCN4CCCCC4)c3n1)C2=O is ___
Ans. active

###

read-out: Bcl-2 (BAD) gene, BAD (gene 572); experiment: LTEA_HepaRG_BAD: Life Technologies and Expression Analysis (LTEA) Assay for Bcl-2 (BAD) gene using HepaRG (AID 2283469); settings: mRNA level, 48 h; actives raise or lower the signal
Calls of active or inactive are those of the source. How the source made its calls: active means hit-call score of the fitted dose curve at least 0.9, where 1 is the maximum; inactive means score below 0.9.
Permitted responses: YES = active, NO = inactive

CCc1ccc(O)c(C(C)(C)C)c1
NO
C=CCc1cc(S(=O)(=O)c2ccc(O)c(CC=C)c2)ccc1O
NO
CCOc1ccc2[nH]cc(C(=O)NCc3ccccc3)c(=O)c2n1
NO
C[C@@H](Oc1ccc(CNC(=O)c2cccnc2Oc2ccc3c(c2)OCO3)c(F)c1)C(=O)O
NO
Nc1ccn([C@@H]2O[C@H](CO)[C@@H](O)[C@@H]2O)c(=O)n1
NO
CNC(C)=O
NO
C=CN1CCCC1=O
NO
c1ccc2ncccc2c1
NO

Qu. Fill in: this test's call for CCCCCOC(C)=O is ___
Ans. NO

Qu. Fill in: this test's call for COc1cc(C(C)C)c2c(c1)S(=O)(=O)N(COc1cc(=O)n3cccc(OCCN4CCCCC4)c3n1)C2=O is ___
Ans. NO

Qu. Fill in: this test's call for CCCC(CCC)C(=O)O is ___
Ans. NO

Qu. Fill in: this test's call for CCCCCCCCN(C)C is ___
Ans. NO

Qu. Fill in: this test's call for CC(C)C(=O)Nc1ccc([N+](=O)[O-])c(C(F)(F)F)c1 is ___
Ans. NO

###

biological target: X-box-binding protein 1 (Homo sapiens); test: ATG_Xbp1_CIS: Attagene CIS-FACTORIAL HepG2 Assay for human X-box Binding Protein 1 (XBP1) (AID 2282972); conditions: HepG2 XBP1 cis-element reporter, Attagene multiplex; actives raise or lower the signal
The source made the active and inactive calls. The calls were made as follows: active = hit-call score of the fitted dose curve at least 0.9, where 1 is the maximum; inactive = score below 0.9.
Permitted responses: active, inactive

Qu. Fill in: this test's call for NC(N)=O is ___
Ans. inactive

Qu. Fill in: this test's call for O=S(=O)(O)c1ccc(N=Nc2c(O)ccc3cc(S(=O)(=O)O)ccc23)cc1 is ___
Ans. inactive

###

experiment: CCTE_Harrill_HTTr_Apoptosis_MCF7: CCTE's 6-hour Apoptosis Assessment for the High-Throughput Transcriptomics (HTTr) Platform, in MCF-7 cells cultured in DMEM + 10% fetal bovine serum, Harrill Lab (AID 2284011)
Calls of active or inactive are those of the source. How the source made its calls: active means hit-call score of the fitted dose curve at least 0.9, where 1 is the maximum; inactive means score below 0.9.
Permitted responses: Yes = active, No = inactive

Examples with answers:
O=c1[nH]cnc2c1ncn2[C@H]1CC[C@@H](CO)O1
No
Cn1c(=O)c2[nH]cnc2n(C)c1=O
No
OCCOCCOCCO
No
Cc1ccc(S(=O)(=O)NC(=O)NN2CCCCCC2)cc1
No
CCc1ccc(O)c(C(C)(C)C)c1
No

Qu. Fill in: this test's call for OCc1ccccc1 is ___
Ans. No

Qu. Fill in: this test's call for CCCC(CCC)C(=O)O is ___
Ans. No

Qu. Fill in: this test's call for CCOc1ccc2[nH]cc(C(=O)NCc3ccccc3)c(=O)c2n1 is ___
Ans. No

Qu. Fill in: this test's call for Cc1ncc([C@@H](CCCCCCc2ccc3c(n2)NCCC3)CC(=O)O)cn1 is ___
Ans. Yes

Qu. Fill in: this test's call for OC(CCl)CCl is ___
Ans. No

Qu. Fill in: this test's call for COCc1nnc(-c2ccc[n+]([O-])c2)n1-c1c(Cl)c(Cl)cc2[nH]c(=O)c(=O)[nH]c12 is ___
Ans. No

Qu. Fill in: this test's call for O=C(O)CO is ___
Ans. No

Qu. Fill in: this test's call for NC(=O)N1c2ccccc2C=Cc2ccccc21 is ___
Ans. No

Qu. Fill in: this test's call for c1ccc2cc3ccccc3cc2c1 is ___
Ans. No

###

experiment: CCTE_Shafer_MEA_acute_network_burst_percentage: CCTE's Neural Acute Assay for Percentage of Network Bursts, Shafer Lab (AID 2284022);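 note: curves fitted for loss so actives lower network burst percentage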
The source made the active and inactive calls. Rule for the calls: active = hit-call score of the fitted dose curve at least 0.9, where 1 is the maximum; inactive = score below 0.9.
Permitted responses: yes (active), no (inactive)

Examples with answers:
CCCCCCCC/C=C\CCCCCCCC(=O)OC[C@@H](O)[C@H]1OC[C@H](O)[C@H]1O
no
OCc1ccccc1
no
c1ccc2cc3ccccc3cc2c1
yes
CCCCC(CC)C(=O)OCCOCCOCCOC(=O)C(CC)CCCC (stereo not drawn)
no
O=S(=O)(O)c1ccc(N=Nc2c(O)ccc3cc(S(=O)(=O)O)ccc23)cc1
no
Cn1c(=O)c2[nH]cnc2n(C)c1=O
no
Cc1ncc([C@@H](CCCCCCc2ccc3c(n2)NCCC3)CC(=O)O)cn1
no

Now, please, on to the next compound.
Qu. Fill in: this test's call for c1ccc(C(O[C@@H]2CCCN(CCc3ccc4c(c3)OCO4)C2)c2ccccc2)cc1 is ___
Ans. no

###

test: ATG_MRE_CIS: Attagene CIS-FACTORIAL HepG2 Assay for human Metal Responsive Element (MRE) (AID 2282954); details: HepG2 MRE cis-reporter transcription, Attagene multiplex; actives raise or lower the signal
The source made the active and inactive calls. The calls were made as follows: active = hit-call score of the fitted dose curve at least 0.9, where 1 is the maximum; inactive = score below 0.9.
experimental readout: AC50

Recorded AC50, per entry:
COS(C)(=O)=O
inactive
OCCNCCO
inactive
c1ccc2c(c1)-c1cccc3c1c-2cc1ccccc13
inactive
Cn1c(=O)c2[nH]cnc2n(C)c1=O
inactive
FC(F)(F)C(F)(F)C(F)(F)C(F)(F)C(F)(F)C(F)(F)I
inactive
OC(CCl)CCl
inactive

Entry CCCOc1ccc(S(=O)(=O)N2CCN(CC)CC2)cc1-c1nc2c(CC)n(Cc3ccccn3)nc2c(=O)[nH]1 , AC50 reported as 34.8 µM (active)

Entry FC(F)C(F)(F)COCC1CO1 (centres undefined) , AC50 reported as inactive

Entry O=C(O)c1cccc(C[C@@H]2COc3ccc(OCc4nc5cc(F)ccc5s4)cc3[C@@H]2O)c1 , AC50 reported as 154 µM (active)

Entry O=C1CN(N=Cc2ccc([N+](=O)[O-])o2)C(=O)N1 , AC50 reported as inactive

Entry CCn1nc(C)c2c1C(=O)NCC(c1ccc(O)cc1)=N2 , AC50 reported as inactive

Entry CCCCN1C(=O)[C@@H]([C@H](O)C2CCCCC2)NC(=O)C12CCN(Cc1ccc(Oc3ccc(C(=O)O)cc3)cc1)CC2 , AC50 reported as 75.8 µM (active)

Entry CC(C)CCCCCCOC(=O)C1CCCCC1C(=O)OCCCCCCC(C)C (centres undefined) , AC50 reported as inactive

Entry OC(Cn1cncn1)(Cn1cncn1)c1ccc(F)cc1F , AC50 reported as inactive

Entry CCCCC(CC)C(=O)OCCOCCOCCOC(=O)C(CC)CCCC (centres undefined) , AC50 reported as inactive

Entry O=C(N[C@H](CO)[C@H](O)c1ccc([N+](=O)[O-])cc1)C(Cl)Cl , AC50 reported as inactive

Entry OC(O)(C(F)C(O)(O)C(F)(F)F)C(F)(F)F , AC50 reported as inactive

Entry OCc1ccccc1 , AC50 reported as inactive

Entry COCc1nnc(-c2ccc[n+]([O-])c2)n1-c1c(Cl)c(Cl)cc2[nH]c(=O)c(=O)[nH]c12 , AC50 reported as inactive

Data credit: PubChem BioAssay (EPA / NIEHS)
